# target under test: T1, human DC-CK (human, UniProt P55774 21-89, limits assumed)
# T1 construct: reading it as DC-CK1/CCL18 is mine
# T1 sequence (looked up): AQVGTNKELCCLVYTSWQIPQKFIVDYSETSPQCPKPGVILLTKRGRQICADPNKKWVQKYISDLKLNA
# assay text: ELISA, hybridoma supernatant

binder	binding result
11K2 (antibody, IgG1, V domains shown, ATCC PTA-3987; also called 11K2.1; 11K2 mAb) VH: EVQLQQSGAELVKAGASVKLSCPASGLNIKDTYMHWVKQRPEQGLEWIGRIDPANGNTKFDPKFQGKATITADTSSNTAYLQLSSLTSEDTAVYYCARGVFGFFDYWGQGTTLTVSS VL: DIQMTQSSSSFSVSLGDRVTITCKATEDIYNRLAWYQQKPGSAPRLLISGATSLETGVPSRFSGSGSGKDYTLSITSLQTEDVATYYCQQFWSAPYTFGGGTKLEIK	no binding
6D21 (antibody, IgG1, V domains shown, IgG1; ATCC PTA-3989; also called 6D21.1) VH: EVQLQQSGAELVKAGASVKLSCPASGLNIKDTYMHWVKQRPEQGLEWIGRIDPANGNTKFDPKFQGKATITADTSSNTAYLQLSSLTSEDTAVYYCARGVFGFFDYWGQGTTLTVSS VL: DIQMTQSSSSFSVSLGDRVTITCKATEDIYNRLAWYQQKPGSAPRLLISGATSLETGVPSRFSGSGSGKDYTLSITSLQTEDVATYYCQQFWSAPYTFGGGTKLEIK	no binding
